- TESTED_SYSTEM: Recombinant human his-tagged IGF R extracellular domain protein (human) (UniProt P08069)
- PROTOCOL_DESCRIPTION: SPR, Ab captured via anti-huIgG Fc, pH 7.4
QUANTITY_MEASURED: kon (M⁻¹ s⁻¹)
Give the value in M⁻¹ s⁻¹ but do not write M⁻¹ s⁻¹ after it.

Some binders with recorded kon:
| BINDER | UNIT_STRING | NUMBER |
| --- | --- | --- |
| VRDN-02067 (antibody, V domains shown) VH: QVQLQESGPGLVKPSETLSLTCTVSGYSITGGYLWNWIRQPPGKGLEWIGYISYDGTNNYKPSLKDRVTISRDTSKNQFSLKLSSVTAADTAVYYCARHGRVFFDYWGQGTLVTVSS VL: DIVMTQSPLSLPVTPGEPASISCRSSQSIVHSNGNTYLQWYLQKPGQSPQLLIYKVSNRLYGVPDRFSGSGSGTDFTLKISRVEAEDVGVYYCFQGSHVHWTFGQGTKVEIK | M⁻¹ s⁻¹ | 110000 |
| VRDN-02020 (antibody, V domains shown) VH: QVQLQESGPGLVKPSETLSLTCTVSGYSITGGYLWNWIRQPPGKGLEWIGYISYDGTNHYKPSLKDRVTISRDTSKNQFSLKLSSVTAADTAVYYCARYGRVFFDYWGQGTLVTVSS VL: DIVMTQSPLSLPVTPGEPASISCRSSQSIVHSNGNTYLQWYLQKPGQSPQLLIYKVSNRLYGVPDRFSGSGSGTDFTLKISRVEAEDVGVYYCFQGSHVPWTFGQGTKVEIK | M⁻¹ s⁻¹ | 94800 |

Next binder, please.
Specify kon for VRDN-02022 (antibody, V domains shown) VH: QVQLQESGPGLVKPSETLSLTCTVSGYSITGGYLWNWIRQPPGKGLEWIGYISYDGTNNYKPSLKDRVTISRDTSKNQFSLKLSSVTAADTAVYYCARYHRVFFDYWGQGTLVTVSS VL: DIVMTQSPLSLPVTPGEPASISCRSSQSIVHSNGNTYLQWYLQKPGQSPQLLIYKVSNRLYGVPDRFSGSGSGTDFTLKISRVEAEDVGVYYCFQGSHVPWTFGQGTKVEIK and stop.
94100
